Assayed target: RORc (Homo sapiens, UniProt P51449)
Sequence (P51449 269-508 limits assumed): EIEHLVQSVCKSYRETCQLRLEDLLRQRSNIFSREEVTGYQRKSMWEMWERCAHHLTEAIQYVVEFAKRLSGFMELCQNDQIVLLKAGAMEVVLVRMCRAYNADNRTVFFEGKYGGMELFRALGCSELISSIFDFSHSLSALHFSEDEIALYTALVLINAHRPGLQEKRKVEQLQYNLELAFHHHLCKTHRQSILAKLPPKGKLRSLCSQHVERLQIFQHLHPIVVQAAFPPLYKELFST
Recorded endpoint: IC50 (nM)
Answer in nM, number only, no unit symbol.

Worked cases, answers included:
compound="C[C@H]1CCC(c2ccccc2)S(=O)(=O)N1Cc1ccc(C(=O)NCc2noc(C(=O)N(C)C)n2)cc1 (stereo partly shown)" measure_unit=nM measured_value=5190
compound="Cc1ncsc1CCOc1ccc(CN2[C@@H](C)CCC(c3ccccc3)S2(=O)=O)cc1 (single isomer, unassigned)" measure_unit=nM measured_value=151
compound="Cc1cc(NC(=O)c2ccc(CN3[C@@H](C)CCC(c4ccccc4)S3(=O)=O)cc2)no1 (stereo partly shown)" measure_unit=nM measured_value=404

Continue with the next compound.
Q) Look at this compound and give its reported IC50. C[C@H]1CCC(c2ccccc2)S(=O)(=O)N1Cc1ccc(OCc2ncccn2)cc1 (stereo partly shown)
A) 1630

----------
Assayed target: RORc (Homo sapiens, UniProt P51449)
Construct: host or cells: E. coli
Method summary: In Vitro RORc Ligand Binding Assay (25-[3H]hydroxycholesterol radioligand, filter plate)
Test context: RORc ligand binding domain 0.6 ug/mL; 6 nM 25-[3H]hydroxycholesterol; 3 h at 25° C.
Procedure: Example 68 In Vitro RORc Ligand Binding Assay This assay was used to determine a compound's potency in inhibiting activity of RORc by determining, Kiapp, IC50, or percent inhibition values. […] Using a Packard Filtermate Harvester, the filter plate were washed 4 times following transfer of the incubated samples. […] 50 uL Microscint 0 was added to all wells and read on Topcount protocol Inverted. […]
Each entry below carries its reported IC50.
Quick reminder: number only, in nM, skip the unit.

compound="C[C@H]1CCC(c2ccccc2)S(=O)(=O)N1Cc1ccc(C(=O)NCCn2ccnc2)cc1 (stereo partly drawn) [Example 6]" recorded_endpoint=IC50 measured_value=3920

Q) For the compound shown here, C[C@H]1CCC(c2ccccc2)S(=O)(=O)N1Cc1ccc(-c2ccc(NS(C)(=O)=O)cc2)cc1F (stereo partly drawn) [Example 33] , give the reported IC50.
A) 44

Q) Dear colleague, I am looking for the recorded IC50 of the following compound: C[C@H]1CCC(c2ccccc2)S(=O)(=O)N1Cc1ccc(-c2ccc(C(=O)N(C)C)cc2)cc1F (single isomer, unassigned) [Example 30]
A) 160

Q) What measured IC50 goes with Cc1oncc1COc1ccc(CN2[C@@H](C)CCC(c3ccccc3)S2(=O)=O)cc1 (stereo partly drawn) [Example 53] ?
A) 208

Q) Would you kindly share the measured IC50 for C[C@H]1CCC(c2ccccc2)S(=O)(=O)N1Cc1ccc(-c2ccc(S(C)(=O)=O)cc2)cc1F (stereo partly drawn) [Example 31] ?
A) 28

Q) Quick one: IC50 for C[C@H]1CC[C@H](c2ccccc2)S(=O)(=O)N1Cc1ccc(C(=O)NCCCn2ccnc2)cc1 [Example 8] ?
A) 4980

Q) Sample Cc1cccnc1COc1ccc(CN2[C@@H](C)CCC(c3ccccc3)S2(=O)=O)cc1 (stereo partly drawn) [Example 46] — what was its IC50?
A) 153

Q) Could you tell me which IC50 is on file for CNC(=O)c1ccc(-c2ccc(CN3[C@@H](C)CCC(c4ccccc4)S3(=O)=O)c(F)c2)cn1 (stereo partly drawn) [Example 36] ?
A) 1600

Q) Entry C[C@H]1CCC(c2ccccc2)S(=O)(=O)N1Cc1ccc(-c2cnc(NS(C)(=O)=O)nc2)cc1F (single isomer, unassigned) [Example 43] has what IC50?
A) 275

Q) If you can, please state the reported IC50 value of Cc1cc(COc2ccc(CN3[C@@H](C)CCC(c4ccccc4)S3(=O)=O)cc2)cc(C)n1 (stereo partly drawn) [Example 54] .
A) 295

Q) Entry under review: C[C@H]1CCC(c2ccccc2)S(=O)(=O)N1Cc1ccc(-c2n[nH]c(S(C)(=O)=O)n2)cc1F (single isomer, unassigned) [Example 42] . Reported IC50?
A) 2170

Q) If you can, please state the reported IC50 value of CC(NC(=O)c1ccc(CN2[C@@H](C)CCC(c3ccccc3)S2(=O)=O)cc1)c1ncc[nH]1 (stereo partly drawn) [Example 18] .
A) 1920

Q) Param item = Cc1n[nH]c(C)c1-c1ccc(CN2[C@@H](C)CCC(c3ccccc3)S2(=O)=O)c(F)c1 (single isomer, unassigned) [Example 1] ; retrieve measured IC50.
A) 527

Q) Quick one: IC50 for C[C@H]1CCC(c2ccccc2)S(=O)(=O)N1Cc1ccc(-c2csc(S(C)(=O)=O)n2)cc1F (single isomer, unassigned) [Example 37] ?
A) 273

Q) Item under review: Cc1cnccc1COc1ccc(CN2[C@@H](C)CCC(c3ccccc3)S2(=O)=O)cc1 (stereo partly drawn) [Example 47] . Reported IC50?
A) 205
